tested on: AA1029; experiment: qHTS profiling for inhibitors of Plasmodium falciparum proliferation (AID 504749); note: nearly all actives have a fitted effect of over 60% in size; settings: P. falciparum in erythrocytes, SYBR Green DNA, 72 h; series mostly up to 28.7 µM
Inconclusive results are not listed. Activity calls are given as the source filed them. Calls come from the whole dose curve; as a rule, active = well fitted inhibition curve with a large enough effect; inconclusive = small, poorly fitted or top-dose-only effect; inactive = flat fitted curve, though single readings scatter.
Please state which outcome applies, choosing from active, inactive

Example cases with answers are listed next.
CCN1C[C@]2(COC)[C@H](O)C[C@H](OC)[C@]34C1C([C@H](OC)[C@H]23)[C@]1(OC(C)=O)C2[C@@H](OC(=O)c3ccccc3)C(O)(C[C@H]24)[C@@H](OC)[C@@H]1O | inactive
O=C(O)c1ccccc1-c1c2cc(Br)c(=O)cc-2oc2[c]([Hg])c(O)c(Br)cc12 | inactive
CC(C)[C@@]1(NC(=O)[C@H]2CC3c4cccc5[nH]cc(c45)C[C@H]3N(C)C2)O[C@@]2(O)C3CCCN3C(=O)[C@@H](Cc3ccccc3)N2C1=O (some centres undefined) | active

Please examine the following record next.
Q: Which outcome was assigned to CCN(CC)CCO[C@H]1CC[C@@]2(C)C(=CC[C@@H]3[C@H]2CC[C@]2(C)C(=O)CC[C@H]32)C1 in this test?
A: inactive
